Biological target: human PHD2 (Homo sapiens (Human))
Sequence (Q9GZT9 whole entry): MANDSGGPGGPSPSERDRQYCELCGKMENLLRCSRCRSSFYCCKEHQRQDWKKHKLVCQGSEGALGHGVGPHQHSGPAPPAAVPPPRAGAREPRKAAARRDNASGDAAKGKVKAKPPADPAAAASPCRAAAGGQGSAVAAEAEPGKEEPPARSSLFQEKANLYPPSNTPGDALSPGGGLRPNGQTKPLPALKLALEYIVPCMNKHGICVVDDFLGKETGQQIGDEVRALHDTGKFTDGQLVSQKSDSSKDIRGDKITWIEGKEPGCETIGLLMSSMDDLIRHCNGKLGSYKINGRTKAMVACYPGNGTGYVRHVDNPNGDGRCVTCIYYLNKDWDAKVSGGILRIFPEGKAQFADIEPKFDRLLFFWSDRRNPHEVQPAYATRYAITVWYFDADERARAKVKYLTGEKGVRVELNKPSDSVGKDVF
Assay: Test 2: human PHD2 inhibitory activity, fluorescence polarization assay of HIF-1α peptide proline hydroxylation
Type: biochemical
Conditions: test compound's concentration 1 μM; Test 2, fluorescence polarization assay; read-out: Percent inhibition (% at 1 μM)
# inhibition at 1 µM values compiled below
metric: inhibition at 1 µM

[[record]]
compound = "O=C(O)CNC(=O)C1=C(O)CCN(Cc2ccc(-c3ccc(C4CC4)cc3)cc2)C1=O [Ex. 2-49]"
metric = "inhibition at 1 µM"
reading = "93%"

[[record]]
compound = "Cc1cc(CN2C(=O)C(C(=O)NCC(=O)O)=C(O)CC2(C)C)ccc1Cl [Ex. 1-180]"
metric = "inhibition at 1 µM"
reading = "65%"

[[record]]
compound = "O=C(O)CNC(=O)C1=C(O)C2(CCOCC2)CN(Cc2ccc(-c3ccccc3)cc2)C1=O [Ex. 1-11]"
metric = "inhibition at 1 µM"
reading = "93%"

[[record]]
compound = "O=C(O)CNC(=O)C1=C(O)CCN(Cc2ccc(Br)cc2)C1=O [Ex. 1-23]"
metric = "inhibition at 1 µM"
reading = "82%"

[[record]]
compound = "O=C(O)CNC(=O)C1=C(O)CCN(Cc2ccc(C(F)(F)F)c(C(F)(F)F)c2)C1=O [Ex. 1-120]"
metric = "inhibition at 1 µM"
reading = "82%"

[[record]]
compound = "O=C(O)CNC(=O)C1=C(O)CC2(CCC2)N(Cc2ccc(C(F)(F)F)cc2)C1=O [Ex. 1-122]"
metric = "inhibition at 1 µM"
reading = "76%"

[[record]]
compound = "O=C(O)CNC(=O)C1=C(O)CCN(Cc2ccc(C(=O)NCc3ccccn3)cc2)C1=O [Ex. 1-348]"
metric = "inhibition at 1 µM"
reading = "76%"

[[record]]
compound = "O=C(O)CNC(=O)C1=C(O)CCN(Cc2ccc(C(F)(F)F)c(F)c2F)C1=O [Ex. 1-134]"
metric = "inhibition at 1 µM"
reading = "85%"

[[record]]
compound = "O=C(O)CNC(=O)C1=C(O)CCN(Cc2cnc(-c3ccccc3)nc2)C1=O [Ex. 1-41]"
metric = "inhibition at 1 µM"
reading = "90%"

[[record]]
compound = "CC1(C)C(O)=C(C(=O)NCC(=O)O)C(=O)N1Cc1ccc(-c2ccccc2)cc1 [Ex. 1-324]"
metric = "inhibition at 1 µM"
reading = "91%"

[[record]]
compound = "O=C(O)CNC(=O)C1=C(O)CCN(Cc2ccc(OCc3ccc(F)cc3)cc2)C1=O [Ex. 1-241]"
metric = "inhibition at 1 µM"
reading = "101%"

[[record]]
compound = "CC1CN(Cc2ccc(-c3ccccn3)cc2)C(=O)C(C(=O)NCC(=O)O)=C1O (stereo not shown) [Ex. 1-93]"
metric = "inhibition at 1 µM"
reading = "81%"

[[record]]
compound = "O=C(O)CNC(=O)C1=C(O)CC2(CCOCC2)N(Cc2ccc(C(F)(F)F)cc2)C1=O [Ex. 1-106]"
metric = "inhibition at 1 µM"
reading = "72%"

[[record]]
compound = "CC1CN(Cc2ccc(C(F)(F)F)cc2)C(=O)C(C(=O)NCC(=O)O)=C1O (stereo not shown) [Ex. 1-103]"
metric = "inhibition at 1 µM"
reading = "82%"

[[record]]
compound = "O=C(O)CNC(=O)C1=C(O)CCN(Cc2ccc(-c3ccc(OC(F)(F)F)cc3)nc2)C1=O [Ex. 2-36]"
metric = "inhibition at 1 µM"
reading = "95%"

[[record]]
compound = "O=C(O)CNC(=O)C1=C(O)C2(CCCCC2)N(CC2CCC(c3ccccc3)CC2)C1=O (stereo not shown) [Ex. 1-332]"
metric = "inhibition at 1 µM"
reading = "73%"

[[record]]
compound = "CC1(C)CC(O)=C(C(=O)NCC(=O)O)C(=O)N1Cc1ccc(OCC2CC2)nc1 [Ex. 6-29]"
metric = "inhibition at 1 µM"
reading = "69%"

[[record]]
compound = "O=C(O)CNC(=O)C1=C(O)CC2(CCCCC2)N(Cc2ccccc2)C1=O [Ex. 1-253]"
metric = "inhibition at 1 µM"
reading = "49%"

[[record]]
compound = "CCOc1ccc(CN2CCC(O)=C(C(=O)NCC(=O)O)C2=O)cc1 [Ex. 1-71]"
metric = "inhibition at 1 µM"
reading = "85%"

[[record]]
compound = "O=C(O)CNC(=O)C1=C(O)CCN(Cc2ccc(C(F)(F)F)c(Cl)c2)C1=O [Ex. 1-128]"
metric = "inhibition at 1 µM"
reading = "84%"

[[record]]
compound = "CCCOc1ccc(CN2C(=O)C(C(=O)NCC(=O)O)=C(O)CC2(C)C)cc1 [Ex. 1-227]"
metric = "inhibition at 1 µM"
reading = "75%"

[[record]]
compound = "O=C(O)CNC(=O)C1=C(O)CCN(Cc2ccc(Oc3ccc(C(F)(F)F)cn3)cc2)C1=O [Ex. 1-298]"
metric = "inhibition at 1 µM"
reading = "94%"

[[record]]
compound = "O=C(O)CNC(=O)C1=C(O)C2(CCCCC2)N(Cc2ccc(-c3ccccc3)cc2)C1=O [Ex. 1-325]"
metric = "inhibition at 1 µM"
reading = "90%"

[[record]]
compound = "O=C(O)CNC(=O)C1=C(O)CCN(Cc2cccc3ccccc23)C1=O [Ex. 1-33]"
metric = "inhibition at 1 µM"
reading = "84%"

[[record]]
compound = "O=C(O)CNC(=O)C1=C(O)CCN(Cc2ccc(C3CC3)c(C(F)(F)F)c2)C1=O [Ex. 1-212]"
metric = "inhibition at 1 µM"
reading = "85%"

[[record]]
compound = "O=C(O)CNC(=O)C1=C(O)CCN(Cc2ccc(Oc3ncccn3)cc2)C1=O [Ex. 1-226]"
metric = "inhibition at 1 µM"
reading = "84%"

[[record]]
compound = "CC1C(O)=C(C(=O)NCC(=O)O)C(=O)N1Cc1ccc(Oc2ccc(C(F)(F)F)cn2)cc1 (stereo not shown) [Ex. 6-5]"
metric = "inhibition at 1 µM"
reading = "97%"

[[record]]
compound = "O=C(O)CNC(=O)C1=C(O)CCN(Cc2ccc(O)c(Cl)c2)C1=O [Ex. 1-466, disodium]"
metric = "inhibition at 1 µM"
reading = "77%"

[[record]]
compound = "Cc1cccc(Oc2ccc(CN3CCC(O)=C(C(=O)NCC(=O)O)C3=O)cc2)c1 [Ex. 1-257]"
metric = "inhibition at 1 µM"
reading = "89%"

[[record]]
compound = "Cc1ccc(CN2CCC(O)=C(C(=O)NCC(=O)O)C2=O)cc1C(F)(F)F [Ex. 1-129]"
metric = "inhibition at 1 µM"
reading = "80%"

[[record]]
compound = "O=C(O)CNC(=O)C1=C(O)C2(CCCCC2)CN(Cc2ccccc2)C1=O [Ex. 1-6]"
metric = "inhibition at 1 µM"
reading = "57%"

[[record]]
compound = "CC1(C)CC(O)=C(C(=O)NCC(=O)O)C(=O)N1Cc1ccc(C(F)(F)F)cc1 [Ex. 1-85]"
metric = "inhibition at 1 µM"
reading = "65%"

[[record]]
compound = "Cc1ccccc1Oc1ccc(CN2CCC(O)=C(C(=O)NCC(=O)O)C2=O)cc1 [Ex. 1-283]"
metric = "inhibition at 1 µM"
reading = "97%"

[[record]]
compound = "Cc1cc(Oc2ccc(CN3CCC(O)=C(C(=O)NCC(=O)O)C3=O)cn2)ccc1F [Ex. 1-368]"
metric = "inhibition at 1 µM"
reading = "101%"


Data origin, for the record: patent US9422240B2
